Please provide measured IC50 for the entries that follow.
Target: EphB2-EphrinB2 (Mus musculus, UniProt P54763)
Sequence (P54763 19-543 limits assumed): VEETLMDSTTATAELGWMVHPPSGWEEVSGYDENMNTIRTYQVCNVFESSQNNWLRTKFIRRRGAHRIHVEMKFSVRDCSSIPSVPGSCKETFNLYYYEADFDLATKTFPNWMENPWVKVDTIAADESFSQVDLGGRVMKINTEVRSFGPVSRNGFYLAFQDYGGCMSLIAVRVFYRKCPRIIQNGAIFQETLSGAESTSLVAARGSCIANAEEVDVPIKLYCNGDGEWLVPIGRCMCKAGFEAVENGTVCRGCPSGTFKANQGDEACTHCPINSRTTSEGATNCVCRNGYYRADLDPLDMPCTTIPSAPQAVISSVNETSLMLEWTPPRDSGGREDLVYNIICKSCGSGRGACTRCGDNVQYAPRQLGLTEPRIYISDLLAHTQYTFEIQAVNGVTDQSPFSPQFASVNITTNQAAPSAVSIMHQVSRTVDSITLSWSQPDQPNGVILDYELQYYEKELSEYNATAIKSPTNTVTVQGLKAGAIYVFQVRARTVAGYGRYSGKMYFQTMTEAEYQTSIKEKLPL
Experiment: Octet, immobilized mouse EphB2 binding to mouse EphrinB2
Conditions: Absolute Association IC50, mEphB2-mEphrinB2; immobilized mouse EphB2; 50 nM soluble mouse EphrinB2; association; absolute
Numeric only. Scale: µM

# get_value(readout='IC50', item= `Oc1ccc(CN2CCOCC2)c2cccnc12` )
100

Would you kindly share the measured IC50 for `Oc1c(Br)cc(CN2CCOCC2)c2cccnc12` ?
2.92

Please give the measured IC50 for this molecule: `O=S1(=O)CCN(Cc2ccc(O)c3ncccc23)CC1`
100

Could you tell me which IC50 is on file for `Oc1c(Cl)cc(CN2CCOCC2)c2cccnc12` ?
4.29

Reported IC50 for `Oc1ccc(CN2CCN(Cc3ccc(C(F)(F)F)cc3)CC2)c2cccnc12` : what is it?
100

* * *

Exercise: state measured IC50 for each of the molecules provided.
Biological target: EphrinB2-EphB2 (Homo sapiens)
Construct: soluble human EphB1-His, EphB2-His, and EphB4-His ectodomains; commercially available human EphrinB1-Fc (EB1), EphrinB2-Fc (EB2), and EphrinB3-Fc (EB3) ectodomain proteins; purchased
Sequence (P29323 19-543 limits assumed): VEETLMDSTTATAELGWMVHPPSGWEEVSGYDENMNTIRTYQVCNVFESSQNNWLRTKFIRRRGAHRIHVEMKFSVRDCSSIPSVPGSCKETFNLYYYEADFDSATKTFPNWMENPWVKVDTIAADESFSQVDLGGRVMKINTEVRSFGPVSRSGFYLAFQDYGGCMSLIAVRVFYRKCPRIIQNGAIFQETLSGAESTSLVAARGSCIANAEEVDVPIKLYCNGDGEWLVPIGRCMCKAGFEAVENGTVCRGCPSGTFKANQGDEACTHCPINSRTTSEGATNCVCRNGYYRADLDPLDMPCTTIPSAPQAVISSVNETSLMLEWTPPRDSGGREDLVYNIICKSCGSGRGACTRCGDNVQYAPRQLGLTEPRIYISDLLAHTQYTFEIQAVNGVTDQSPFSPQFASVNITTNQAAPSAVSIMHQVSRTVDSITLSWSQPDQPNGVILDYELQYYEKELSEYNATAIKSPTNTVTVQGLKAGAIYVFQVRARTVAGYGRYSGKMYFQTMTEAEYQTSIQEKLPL
Experiment: Octet tetramerization inhibition, immobilized human EphrinB2 binding to 50 nM soluble human EphB2
Conditions: Relative Association IC50 (300 sec), Table A, EphrinB2-EphB2

Identify the measured IC50 of `COc1ccc2[nH]cc(C(=O)N3CCN(c4ccc(Br)cc4)CC3)c2c1` for EphrinB2-EphB2 (Homo sapiens).
> 1600 nM

Tell me reported IC50 for Oc1ccc(CN2CCOCC2)c2cccnc12 [Compound 2] , tested with EphrinB2-EphB2 (Homo sapiens).
2090 nM

Reported IC50 for EphrinB2-EphB2 (Homo sapiens), given `Oc1ccc(CN2CCN(c3ccc(F)cc3F)CC2)c2cccnc12` ?
> 1600 nM

IC50 of Oc1ccc(CN2CCN(Cc3ccc(Br)cc3)CC2)c2cccnc12 [Compound 43] on EphrinB2-EphB2 (Homo sapiens)?
1950 nM

Checklist item: IC50 tested on EphrinB2-EphB2 (Homo sapiens), entry `COc1ccccc1N1CCN(Cc2cc(Br)c(O)c3ncccc23)CC1` , value?
180 nM

Which IC50 is reported with EphrinB2-EphB2 (Homo sapiens) for this entry: `Oc1c(Br)cc(CN2CCOCC2)c2cccnc12` ?
490 nM

Find IC50 (EphrinB2-EphB2 (Homo sapiens)) for the entry `O=S1(=O)CCN(Cc2cc(I)c(O)c3ncccc23)CC1`
830 nM

Form: Entry = `Oc1c(I)cc(CN2CCOCC2)c2cccnc12` | System = EphrinB2-EphB2 (Homo sapiens) | IC50 = ____
890 nM

Can you look up IC50 on EphrinB2-EphB2 (Homo sapiens) for Cc1ccc2c(CN3CCN(c4ccc(Br)cc4)CC3)ccc(O)c2n1 [Compound 60] ?
> 3200 nM

API: value(readout=IC50, system=EphrinB2-EphB2 (Homo sapiens)) for record `CC(=O)Nc1ccc(N2CCN(Cc3ccc(O)c4ncccc34)CC2)cc1`
2770 nM

Give recorded IC50 with EphrinB2-EphB2 (Homo sapiens) for the following molecule: `O=C(Cc1ccccc1)Nc1ccc(N2CCN(Cc3cc(Br)c(O)c4ncccc34)CC2)cc1`
3310 nM

Identify the measured IC50 of O=[N+]([O-])c1cc(CN2CCOCC2)c2cccnc2c1O [Compound 10] for EphrinB2-EphB2 (Homo sapiens).
> 1600 nM

Kindly state the measured IC50 obtained for `OCc1ccc2c(CN3CCOCC3)cc(Br)c(O)c2n1` with EphrinB2-EphB2 (Homo sapiens).
1410 nM

Identify the measured IC50 of `O=[N+]([O-])c1ccc(N2CCN(Cc3ccc(O)c4ncccc34)CC2)cc1` for EphrinB2-EphB2 (Homo sapiens).
1230 nM

Hello, I am looking for reported IC50 with EphrinB2-EphB2 (Homo sapiens) for Oc1ccc(CN2CCN(c3ccc(Br)cn3)CC2)c2cccnc12 [Compound 33] . Could you help?
1820 nM

* * *

Target: EphrinB2-EphB2 (Homo sapiens)
Construct: soluble human EphB1-His, EphB2-His, and EphB4-His ectodomains; commercially available human EphrinB1-Fc (EB1), EphrinB2-Fc (EB2), and EphrinB3-Fc (EB3) ectodomain proteins; purchased
Assay: Octet tetramerization inhibition, immobilized human EphrinB2 binding to 50 nM soluble human EphB2
Conditions: Absolute Dissociation IC50 (450 sec), Table A, EphrinB2-EphB2
Property Measured: IC50

Report IC50 for `Oc1ccc(CN2CCN(Cc3ccc(C(F)(F)F)cc3)CC2)c2cccnc12` please.
> 1600 nM

Param item = Oc1ccc(CN2CCN(c3ccccc3)CC2)c2cccnc12 [Compound 23] ; retrieve measured IC50.
> 1600 nM

Entry under review: O=[N+]([O-])c1cc(CN2CCOCC2)c2cccnc2c1O [Compound 10] . Reported IC50?
> 1600 nM

I have this compound here, O=[N+]([O-])c1cc(CN2CCS(=O)(=O)CC2)c2cccnc2c1O [Compound 21] , and I need its recorded IC50.
1700 nM

Which IC50 value belongs to `O=C(c1ccc(O)c2ncccc12)N1CCOCC1` ?
2340 nM

Would you mind telling me what IC50 value was observed for `O=S1(=O)CCN(Cc2cc(I)c(O)c3ncccc23)CC1` ?
1410 nM

Request the reported IC50 associated with Cc1ccc2c(CN3CCN(c4ccc(Br)cc4)CC3)ccc(O)c2n1 [Compound 60]
> 3200 nM

// query IC50 value for entry `COc1ccc(N2CCN(Cc3cc(Br)c(O)c4ncccc34)CC2)cc1`
1510 nM

Entry under review: O=[N+]([O-])c1cc(CN2CCS(=O)(=O)CC2)c2cccnc2c1O [Compound 20] . Reported IC50?
> 3200 nM

Look at this compound and give its reported IC50. `OCc1ccc2c(CN3CCOCC3)ccc(O)c2n1`
> 3200 nM

Which measured IC50 value corresponds to Cc1ccc2c(CN3CCN(c4ccc(Br)cc4)CC3)ccc(O)c2n1 [Compound 61] ?
> 1600 nM

Would you mind telling me what IC50 value was observed for `Oc1ccc(CN2CCN(c3ccc(Br)cn3)CC2)c2cccnc12` ?
2630 nM

Item Oc1c(Br)cc(CN2CCN(Cc3ccc(Br)cc3)CC2)c2cccnc12 [Compound 45] has what recorded IC50?
720 nM

What measured IC50 goes with `Oc1c(I)cc(CN2CCN(Cc3ccc(Br)cc3)CC2)c2cccnc12` ?
690 nM

Suppose we examine the compound `COc1ccc(N2CCN(Cc3ccc(O)c4ncccc34)CC2)cc1` ; what IC50 value has been reported?
1510 nM

I have this compound here, `Oc1ccc(CN2CCN(Cc3ccc(Br)cc3)CC2)c2cccnc12` , and I need its recorded IC50.
1910 nM

Suppose we examine the compound `O=S1(=O)CCN(Cc2ccc(O)c3ncccc23)CC1` ; what IC50 value has been reported?
> 1600 nM

Name the recorded IC50 for Oc1ccc(CN2CCOCC2)c2cccnc12 [Compound 1, 5-(morpholinomethyl)quinolin-8-ol] .
> 1600 nM

Which value of IC50 has been reported for `Oc1ccc(CN2CCN(c3ccc(I)cc3)CC2)c2cccnc12` in the records?
> 1600 nM

I am curious: what IC50 value has been reported for Oc1ccc(CN2CCOCC2)c2cccnc12 [Compound 2] ?
> 6400 nM

# lookup: IC50 of Oc1ccc(CN2CCN(c3ccccc3)CC2)c2cccnc12 [Compound 22]
> 3200 nM

What measured IC50 goes with `Nc1ccc(N2CCN(Cc3ccc(O)c4ncccc34)CC2)cc1` ?
2830 nM

Report IC50 for O=[N+]([O-])c1cc(CN2CCOCC2)c2cccnc2c1O [Compound 9] please.
> 3200 nM

Given the compound `O=C(Cc1ccccc1)Nc1ccc(N2CCN(Cc3cc(Br)c(O)c4ncccc34)CC2)cc1` , what is its reported IC50?
> 3200 nM

If you can, please state the reported IC50 value of `Cc1ccc2c(CN3CCOCC3)cc(Br)c(O)c2n1` .
> 3200 nM

Entry `O=[N+]([O-])c1ccc(N2CCN(Cc3ccc(O)c4ncccc34)CC2)cc1` : reported IC50 = ?
1860 nM

Item `Oc1c(Br)cc(CN2CCOCC2)c2cccnc12` has what recorded IC50?
690 nM

What IC50 value was documented for this compound, `Oc1c(I)cc(CN2CCOCC2)c2cccnc12` ?
> 1600 nM

Look up IC50 for this compound: `COc1ccc2[nH]cc(C(=O)N3CCN(c4ccccc4OC)CC3)c2c1`
> 1600 nM

# query: IC50 of entry `OCc1ccc2c(CN3CCOCC3)cc(Br)c(O)c2n1`
2510 nM

Please look up its IC50: `Oc1ccc(CN2CCN(c3ccc(Br)cc3)CC2)c2cccnc12`
> 1600 nM

Name the reported IC50 value associated with the compound `Oc1ccc(CN2CCN(c3ccc(F)cc3F)CC2)c2cccnc12`
> 1600 nM

IC50 for `O=C(Cc1ccccc1)Nc1ccc(N2CCN(Cc3ccc(O)c4ncccc34)CC2)cc1` ?
1290 nM

Requested field: IC50. Item: `COc1ccccc1N1CCN(Cc2ccc(O)c3ncccc23)CC1`
> 3200 nM

Quick one: IC50 of `COc1ccc2[nH]cc(C(=O)N3CCN(c4ccc(Br)cc4)CC3)c2c1` ?
> 1600 nM

Give its IC50 value. Item: `COc1ccc2[nH]cc(C(=O)N3CCOCC3)c2c1`
> 3200 nM

Consider the compound shown here: `CC(=O)Nc1ccc(N2CCN(Cc3ccc(O)c4ncccc34)CC2)cc1` What is its recorded IC50?
> 3200 nM

IC50 for `COc1ccc(N2CCN(Cc3cc(I)c(O)c4ncccc34)CC2)cc1` ?
420 nM
